Answer each item with its documented pIC50.
molecular target: Adenosine receptor A3 (Homo sapiens); format: cell membranes, CHO-K1, Membrane; conditions: read-out: IC50; also: in other assays of this panel Not Active means under 50% inhibition at 10 µM;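 also: radioligand binding assay with AB-MECA serving as the labeled ligand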
Sequence (P0DMS8 whole entry): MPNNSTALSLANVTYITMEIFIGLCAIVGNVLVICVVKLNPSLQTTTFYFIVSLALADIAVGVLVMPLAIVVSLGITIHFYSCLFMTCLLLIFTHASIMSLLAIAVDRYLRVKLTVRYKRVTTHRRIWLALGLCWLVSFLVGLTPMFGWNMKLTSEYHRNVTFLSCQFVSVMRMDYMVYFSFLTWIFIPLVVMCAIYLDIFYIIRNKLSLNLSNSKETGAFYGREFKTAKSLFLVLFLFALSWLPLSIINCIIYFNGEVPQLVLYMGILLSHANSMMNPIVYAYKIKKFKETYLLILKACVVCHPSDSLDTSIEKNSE
Numbers only, as −log10 of the molar value.

> print(dat)
                                 molecule  assayresult
1  Nc1nc2nc[nH]c2c(=S)[nH]1 [THIOGUANINE]         4.66

Give me pIC50 for each of these molecules, listed below.
1. Cc1ccc2cc3c(ccc4ccccc43)c3c2c1CC3 [3-METHYLCHOLANTHRENE]
2. Cc1cc(C(C#N)c2ccc(Cl)cc2)c(Cl)cc1NC(=O)c1cc(I)cc(I)c1O (stereo not drawn) [CLOSANTEL]

1. 5.26
2. 7.02

Give me pIC50 for each of these molecules, listed below.
1. Cc1c(C)c2c(c(C)c1O)CCC(C)(COc1ccc(CC3SC(=O)NC3=O)cc1)O2 (stereo not drawn) [TROGLITAZONE]
2. Cc1ccc(-c2cc(C(F)(F)F)nn2-c2ccc(S(N)(=O)=O)cc2)cc1 [CELECOXIB]
3. O=c1ncn2nc(Sc3ccc(F)cc3F)ccc2c1-c1c(Cl)cccc1Cl [NEFLAMAPIMOD]
4. CSc1ccc(/C=C2/C(C)=C(CC(=O)O)c3cc(F)ccc32)cc1 [SULINDAC SULFIDE]
5. CC/C(=C(\c1ccccc1)c1ccc(OCCN(C)C)cc1)c1ccccc1 [TAMOXIFEN]

5.28
4.61
5.07
5.14
5.43

###

assay: DRUGMATRIX: ATPase, Na+/K+ enzyme inhibition (substrate: ATP); type: tissue-based, Sus scrofa, Heart; conditions: Not Active = under 50% inhibition at 10 µM
quantityMeasured: IC50

// known answers, use as guide
compound	IC50
Cc1ccc(-c2cc(C(F)(F)F)nn2-c2ccc(S(N)(=O)=O)cc2)cc1 [CELECOXIB]	Not Active
Cc1cc(C2CCCCC2)n(O)c(=O)c1 [CICLOPIROX]	Not Active
N[C@@H](Cc1ccc(N(CCCl)CCCl)cc1)C(=O)O	Not Active
Cc1oncc1C(=O)Nc1ccc(C(F)(F)F)cc1 [LEFLUNOMIDE]	Not Active
Nc1nc2c(ncn2CCC(CO)CO)c(=O)[nH]1 [PENCICLOVIR]	Not Active
NC(=O)N1c2ccccc2CCc2ccccc21	Not Active

Give me IC50 for each of these compounds, listed below.
1. O=C(O)CCCc1ccc(N(CCCl)CCCl)cc1 [CHLORAMBUCIL]
2. CC(C)C(=O)Nc1ccc([N+](=O)[O-])c(C(F)(F)F)c1 [FLUTAMIDE]
3. Nc1nc(N)nc(-c2cc(Cl)ccc2Cl)n1.O=C(O)/C=C\C(=O)O [IRSOGLADINE MALEATE]
4. CC1(C)O[C@@H]2C[C@H]3[C@@H]4CCC5=CC(=O)C=C[C@]5(C)[C@@]4(F)[C@@H](O)C[C@]3(C)[C@]2(C(=O)CO)O1 [TRIAMCINOLONE ACETONIDE]
5. COc1nc(C)nc(Cl)c1NC1=NCCN1 [MOXONIDINE]

1: Not Active; 2: Not Active; 3: Not Active; 4: Not Active; 5: Not Active

Give me IC50 for each of these compounds, listed below.
1. C[C@H](CCC(=O)O)[C@H]1CC[C@H]2[C@@H]3[C@H](O)C[C@@H]4C[C@H](O)CC[C@]4(C)[C@H]3C[C@H](O)[C@]12C [CHOLIC ACID]
2. C[C@H]1c2cccc(O)c2C(=O)C2=C(O)[C@]3(O)C(=O)C(C(N)=O)=C(O)[C@@H](N(C)C)[C@@H]3[C@@H](O)[C@@H]21.O [DOXYCYCLINE]
3. OC(Cn1cncn1)(Cn1cncn1)c1ccc(F)cc1F [FLUCONAZOLE]
4. C[C@]12CC[C@@H]3c4ccc(O)cc4CC[C@H]3[C@@H]1CCC2=O [ESTRONE]
5. CN(C)CCCN1c2ccccc2Sc2ccccc21 [PROMAZINE]
6. Nc1c2c(nc3ccccc13)CCCC2 [TACRINE]
7. Cn1ccnc1S [METHIMAZOLE]
8. CC(=O)O[C@@]12CO[C@@H]1C[C@H](O)[C@@]1(C)C(=O)[C@H](O)C3=C(C)[C@@H](OC(=O)[C@H](O)[C@@H](NC(=O)OC(C)(C)C)c4ccccc4)C[C@@](O)([C@@H](OC(=O)c4ccccc4)[C@H]21)C3(C)C.O.O.O [DOCETAXEL]

["Not Active", "Not Active", "Not Active", "Not Active", "Not Active", "Not Active", "Not Active", "Not Active"]

Give me IC50 for each of these compounds, listed below.
1. CC(C)N1CCN(c2ccc(OCC3COC(Cn4cncn4)(c4ccc(Cl)cc4Cl)O3)cc2)CC1 (stereo not drawn) [TERCONAZOLE]
2. Cc1onc(-c2ccccc2Cl)c1C(=O)N[C@@H]1C(=O)N2[C@@H]1SC(C)(C)[C@@H]2C(=O)O [CLOXACILLIN]
3. N=C(N)NCCN1CCCCCCC1 [GUANETHIDINE]
4. Cc1ccc(N(CC2=NCCN2)c2cccc(O)c2)cc1 [PHENTOLAMINE]
5. Cc1noc(NS(=O)(=O)c2ccc(N)cc2)c1C [SULFISOXAZOLE]
6. C[C@H](CS)C(=O)N1CCC[C@H]1C(=O)O [CAPTOPRIL]
7. O=C(CCCN1CC=C(n2c(=O)[nH]c3ccccc32)CC1)c1ccc(F)cc1 [DROPERIDOL]

1: Not Active; 2: Not Active; 3: Not Active; 4: Not Active; 5: Not Active; 6: Not Active; 7: Not Active

Give me IC50 for each of these compounds, listed below.
1. CC1(C)O[C@@H]2C[C@H]3[C@@H]4CCC5=CC(=O)CC[C@]5(C)[C@@]4(F)[C@@H](O)C[C@]3(C)[C@]2(C(=O)CCl)O1 [HALCINONIDE]
2. CC(C)[C@@]1(NC(=O)[C@@H]2C[C@@H]3c4cccc5[nH]cc(c45)C[C@H]3N(C)C2)O[C@@]2(O)[C@@H]3CCCN3C(=O)[C@H](Cc3ccccc3)N2C1=O.CS(=O)(=O)O [DIHYDROERGOCRISTINE MESYLATE]
3. c1ccc(Nc2ccc(Nc3ccccc3)cc2)cc1

1: Not Active; 2: Not Active; 3: Not Active

Give me IC50 for each of these compounds, listed below.
1. C1CCC(C(CC2CCCCN2)C2CCCCC2)CC1 (stereo not drawn) [PERHEXILINE]
2. C[C@]12CCC(=O)C=C1CC[C@@H]1[C@@H]2CC[C@@]2(C)[C@H]1CC[C@]2(C)O [METHYLTESTOSTERONE]
3. CNCCc1ccccn1 [BETAHISTINE]
4. OCCN(CCO)c1nc(N2CCCCC2)c2nc(N(CCO)CCO)nc(N3CCCCC3)c2n1 [DIPYRIDAMOLE]

1: Not Active; 2: Not Active; 3: Not Active; 4: Not Active

###

molecular target: UniProtKB P11509; settings: bti-tn-5b1-4
Sequence (P11509 whole entry): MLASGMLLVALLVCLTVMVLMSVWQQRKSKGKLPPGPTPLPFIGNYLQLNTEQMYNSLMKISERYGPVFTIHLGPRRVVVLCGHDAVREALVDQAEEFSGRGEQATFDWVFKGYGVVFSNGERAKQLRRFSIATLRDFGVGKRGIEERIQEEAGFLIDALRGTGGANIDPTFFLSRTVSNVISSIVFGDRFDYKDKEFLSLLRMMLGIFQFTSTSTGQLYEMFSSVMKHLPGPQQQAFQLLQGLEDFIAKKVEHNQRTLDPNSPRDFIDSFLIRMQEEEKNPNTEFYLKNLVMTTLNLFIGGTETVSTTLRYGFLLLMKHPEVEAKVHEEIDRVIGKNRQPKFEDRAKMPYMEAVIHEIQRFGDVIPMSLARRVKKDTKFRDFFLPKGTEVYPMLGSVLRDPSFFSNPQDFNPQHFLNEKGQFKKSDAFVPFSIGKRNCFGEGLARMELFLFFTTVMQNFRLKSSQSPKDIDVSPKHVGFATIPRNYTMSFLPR
quantityMeasured: Ki

// known answers, use as guide
> print(dat)
                                   molecule  quantitymeasured  assayresult
1  O=c1oc2ccccc2c(O)c1Cc1c(O)c2ccccc2oc1=O [DICUMAROL]                Ki   Not Active
2  Cc1cccc(N(C)C(=S)Oc2ccc3ccccc3c2)c1 [TOLNAFTATE]                Ki   Not Active
3  C[C@H]1c2cccc(O)c2C(=O)C2=C(O)[C@]3(O)C(=O)C(C(N)=O)=C(O)[C@@H](N(C)C)[C@@H]3[C@@H](O)[C@@H]21.O [DOXYCYCLINE]                Ki   Not Active
4  O=C(CCCN1CC=C(n2c(=O)[nH]c3ccccc32)CC1)c1ccc(F)cc1 [DROPERIDOL]                Ki   Not Active
5  CC1CC(OC(=O)C(O)c2ccccc2)CC(C)(C)C1 (centres undefined) [CYCLANDELATE]                Ki   Not Active

Give me Ki for each of these molecules, listed below.
1. CC(C)(C)NCC(O)c1cc(Cl)c(N)c(Cl)c1 (centres undefined) [CLENBUTEROL]
2. NC1=NC(=O)C(c2ccccc2)O1 (centres undefined) [PEMOLINE]
3. Cc1noc(NS(=O)(=O)c2ccc(N)cc2)c1C [SULFISOXAZOLE]
4. Sc1ncnc2nc[nH]c12 [MERCAPTOPURINE ANHYDROUS]

Not Active
Not Active
Not Active
Not Active

###

molecular target: Aldo-keto reductase family 1 member B1 (Rattus norvegicus, UniProt P07943); test: biochemical; type: tissue-based, Lens of camera-type eye; also: in other assays of this panel Not Active means under 50% inhibition at 10 µM;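 also: inhibition of aldose reductase enzyme activity, measured with DL-glyceraldehyde as the substrate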
quantityMeasured: Ki

> print(dat)
                           substance                                       tgt  assayresult
1               SODIUM NITROPRUSSIDE  Aldo-keto reductase family 1 member B1 (Rattus norvegicus, UniProt P07943)   Not Active
2  LIPOPOLYSACCHARIDE E. COLI O55:B5  Aldo-keto reductase family 1 member B1 (Rattus norvegicus, UniProt P07943)   Not Active
3                  LEAD (II) ACETATE  Aldo-keto reductase family 1 member B1 (Rattus norvegicus, UniProt P07943)   Not Active
4                    CADMIUM ACETATE  Aldo-keto reductase family 1 member B1 (Rattus norvegicus, UniProt P07943)   Not Active
